Data provenance: patent US20150098989A1

Molecular target: SNARE complex (VAMP, syntaxin, SNAP-25) (UniProt P60880)
Sequence (P60880 whole entry, one chain of several): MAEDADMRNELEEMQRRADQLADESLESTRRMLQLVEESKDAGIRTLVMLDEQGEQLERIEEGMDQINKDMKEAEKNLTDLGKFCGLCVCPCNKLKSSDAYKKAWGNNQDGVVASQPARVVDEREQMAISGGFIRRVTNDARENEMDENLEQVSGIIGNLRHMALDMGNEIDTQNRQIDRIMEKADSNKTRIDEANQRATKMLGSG
Test: SDS-PAGE of SNARE complex (VAMP, syntaxin, SNAP-25), image analysis; compound at 5 mM
Value type: % inhibition formation SNARE complex

Here's what some known entries look like.
Ac-EHLKQWM-NH2 [Ac-SEQ ID NO: 1-NH2]
100%
Ac-DHFLDWM-NH2 [Ac-SEQ ID NO: 25-NH2]
100%
Ac-EDLKRWM-NH2 [Ac-SEQ ID NO: 14-NH2]
100%

Shift focus to the following entry.
-- ask Consider the binder Ac-DHFLNWM-NH2 [Ac-SEQ ID NO: 34-NH2] . State its measured % inhibition formation SNARE complex.
-- reply 59%
